Reported pIC50 values for the following molecules.
target: Cathepsin D (Bos taurus); assay: Inhibition of Bovine Cathepsin D.
Lab note — pIC50 values are minus log10 of concentrations in M.

Worked set:
{"molecule": "CC(C)C[C@@H](O)[C@H](O)[C@H](CC1CCCCC1)NC(=O)C(NC(=O)[C@H](Cc1ccccc1)NS(=O)(=O)N1CCOCC1)C(=O)OC(C)C (stereo partly drawn)", "testSystem": "Cathepsin D (Bos taurus)", "result": 7.37}
{"molecule": "CC(C)C[C@@H](O)[C@H](O)[C@H](CC1CCCCC1)NC(=O)C(NC(=O)[C@H](Cc1ccccc1)NS(=O)(=O)N1CCOCC1)C(=O)O (stereo partly drawn)", "testSystem": "Cathepsin D (Bos taurus)", "result": 6.51}

Attention now turns to another entry.
Input: Which measured pIC50 belongs to COC(=O)C(NC(=O)[C@H](Cc1ccccc1)NS(=O)(=O)N1CCOCC1)C(=O)N[C@@H](CC1CCCCC1)[C@@H](O)[C@H](O)CC(C)C (stereo in doubt; 4B) , tested on Cathepsin D (Bos taurus)?
Output: 7.11

====

target: Renin (Macaca fascicularis); test: Inhibition of monkey plasma renin
measureName: pIC50
Would you please state pIC50, meaning minus log10 of the concentration in mol/L, as a bare number?

{"compound": "CC(C)C[C@@H](O)[C@H](O)[C@H](CC1CCCCC1)NC(=O)C(NC(=O)[C@H](Cc1ccccc1)NS(=O)(=O)N1CCOCC1)C(=O)O (stereo partly specified)", "pIC50": 7.57}
{"compound": "C=CCOC(=O)C(NC(=O)[C@H](Cc1ccccc1)NS(=O)(=O)N1CCOCC1)C(=O)N[C@@H](CC1CCCCC1)[C@@H](O)[C@H](O)CC(C)C (stereo partly specified)", "pIC50": 9.02}
{"compound": "CC(C)C[C@@H](O)[C@H](O)[C@H](CC1CCCCC1)NC(=O)C(NC(=O)[C@H](Cc1ccccc1)NS(=O)(=O)N1CCOCC1)C(=O)OC(C)C (stereo partly specified)", "pIC50": 9.17}
{"compound": "CCCCCCOC(=O)C(NC(=O)[C@H](Cc1ccccc1)NS(=O)(=O)N1CCOCC1)C(=O)N[C@@H](CC1CCCCC1)[C@@H](O)[C@H](O)CC(C)C (stereo partly specified)", "pIC50": 7.82}
{"compound": "COC(=O)CCC(NC(=O)[C@H](Cc1ccccc1)NS(=O)(=O)N1CCOCC1)C(=O)N[C@@H](CC1CCCCC1)[C@@H](O)[C@H](O)CC(C)C (stereo partly specified)", "pIC50": 8.85}

Please find the next compound below.
Input: So what's the measured pIC50 for this one? COC(=O)CC(NC(=O)[C@H](Cc1ccccc1)NS(=O)(=O)N1CCOCC1)C(=O)N[C@@H](CC1CCCCC1)[C@@H](O)[C@H](O)CC(C)C (stereo partly specified)
Output: 9.74

====

biological target: Cathepsin D (Bos taurus, UniProt P80209); experiment: Inhibition of Bovine Cathepsin D.
Sequence (P80209 whole entry): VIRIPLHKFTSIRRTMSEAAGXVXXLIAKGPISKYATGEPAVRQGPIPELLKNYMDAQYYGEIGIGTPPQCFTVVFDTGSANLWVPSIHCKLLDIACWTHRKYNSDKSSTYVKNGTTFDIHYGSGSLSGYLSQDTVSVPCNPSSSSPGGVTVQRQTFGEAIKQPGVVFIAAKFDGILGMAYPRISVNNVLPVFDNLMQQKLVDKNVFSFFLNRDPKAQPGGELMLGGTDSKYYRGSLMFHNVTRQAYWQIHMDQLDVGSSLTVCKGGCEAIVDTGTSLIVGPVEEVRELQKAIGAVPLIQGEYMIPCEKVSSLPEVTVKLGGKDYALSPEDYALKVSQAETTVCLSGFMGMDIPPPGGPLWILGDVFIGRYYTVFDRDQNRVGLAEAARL
Parameter IC50: see the listing below.
Expressed in nM, but write only the number.

Input: What value of IC50 has been reported for the following molecule? COC(=O)C(NC(=O)[C@H](Cc1ccccc1)NS(=O)(=O)N1CCOCC1)C(=O)N[C@@H](CC1CCCCC1)[C@@H](O)[C@H](O)CC(C)C (stereo in doubt; 4)
Output: 36

Input: Note, next up: COC(=O)CCC(NC(=O)[C@H](Cc1ccccc1)NS(=O)(=O)N1CCOCC1)C(=O)N[C@@H](CC1CCCCC1)[C@@H](O)[C@H](O)CC(C)C (some centres undefined)
Output: 30

Input: And CCCCCCOC(=O)C(NC(=O)[C@H](Cc1ccccc1)NS(=O)(=O)N1CCOCC1)C(=O)N[C@@H](CC1CCCCC1)[C@@H](O)[C@H](O)CC(C)C (some centres undefined) ?
Output: 100

Values from ChEMBL document CHEMBL1125270
